EXPERIMENTAL_TARGET: Human NHE3 (Homo sapiens)
Construct: expressed in transfected cells; host or cells: Opossum kidney (OK) cells (ATCC), electroporation
Sequence (P48764 26-834): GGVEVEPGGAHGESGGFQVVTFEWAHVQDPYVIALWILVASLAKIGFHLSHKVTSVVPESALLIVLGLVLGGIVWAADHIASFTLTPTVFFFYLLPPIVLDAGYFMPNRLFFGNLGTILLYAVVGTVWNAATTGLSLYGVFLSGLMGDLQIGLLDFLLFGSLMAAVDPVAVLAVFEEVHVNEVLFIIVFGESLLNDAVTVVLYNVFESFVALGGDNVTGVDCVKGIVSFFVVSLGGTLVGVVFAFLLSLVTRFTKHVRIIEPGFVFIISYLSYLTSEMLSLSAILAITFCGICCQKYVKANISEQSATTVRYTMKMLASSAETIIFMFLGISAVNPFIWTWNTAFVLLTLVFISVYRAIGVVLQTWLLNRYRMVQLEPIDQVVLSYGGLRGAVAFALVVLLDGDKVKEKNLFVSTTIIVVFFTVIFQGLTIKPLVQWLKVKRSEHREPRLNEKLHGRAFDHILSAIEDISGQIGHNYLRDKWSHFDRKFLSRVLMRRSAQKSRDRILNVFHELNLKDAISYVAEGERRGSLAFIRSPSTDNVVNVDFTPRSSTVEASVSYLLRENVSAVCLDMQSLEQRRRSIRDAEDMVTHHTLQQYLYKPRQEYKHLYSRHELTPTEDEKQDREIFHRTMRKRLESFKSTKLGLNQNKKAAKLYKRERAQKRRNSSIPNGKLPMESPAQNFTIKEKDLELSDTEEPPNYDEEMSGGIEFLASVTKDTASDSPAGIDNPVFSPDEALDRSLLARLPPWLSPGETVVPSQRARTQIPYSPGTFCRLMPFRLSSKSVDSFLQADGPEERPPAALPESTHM
ASSAY_DETAILS: Cell-based NHE3 activity under prompt conditions (OK cells, BCECF pH recovery), human NHE3
ASSAY_SETUP: prompt conditions
Reported Prompt Human NHE3 pIC50 by item:
// return just the number, without any unit appended

Examples with answers:
# STRUCTURE, EXPERIMENTAL_TARGET, OBS_VALUE
rows = [
    ("CN1Cc2c(Cl)cc(Cl)cc2[C@H](c2cccc(S(=O)(=O)NCCOCCOCCNC(=O)CCC(CCC(=O)NCCOCCOCCNS(=O)(=O)c3cccc([C@@H]4CN(C)Cc5c(Cl)cc(Cl)cc54)c3)(CCC(=O)NCCOCCOCCNS(=O)(=O)c3cccc([C@@H]4CN(C)Cc5c(Cl)cc(Cl)cc54)c3)NC(=O)Cc3nnn[nH]3)c2)C1", "Human NHE3 (Homo sapiens)", 7.20),
    ("CN1Cc2c(Cl)cc(Cl)cc2[C@H](c2cccc(S(=O)(=O)NCCOCCOCCNC(=O)CCC(CCC(=O)NCCOCCOCCNS(=O)(=O)c3cccc([C@@H]4CN(C)Cc5c(Cl)cc(Cl)cc54)c3)(CCC(=O)NCCOCCOCCNS(=O)(=O)c3cccc([C@@H]4CN(C)Cc5c(Cl)cc(Cl)cc54)c3)NC(=O)Cn3ccnc3)c2)C1", "Human NHE3 (Homo sapiens)", 6.80),
]

Attention now turns to another entry.
[Q] If you can, please state the reported Prompt Human NHE3 pIC50 value of "CN1Cc2c(Cl)cc(Cl)cc2[C@H](c2cccc(S(=O)(=O)NCCOCCOCCNC(=O)CCC(CCC(=O)NCCOCCOCCNS(=O)(=O)c3cccc([C@@H]4CN(C)Cc5c(Cl)cc(Cl)cc54)c3)(CCC(=O)NCCOCCOCCNS(=O)(=O)c3cccc([C@@H]4CN(C)Cc5c(Cl)cc(Cl)cc54)c3)NC(=O)NC(CO)(CO)CO)c2)C1" .
[A] 6.90

###

Test system: absorption of sodium from the intestinal lumen
ASSAY_DETAILS: Inhibition of intestinal sodium absorption: urinary sodium (uNa) 16 h after single oral dose in rats
Format: in vivo, rat
ASSAY_SETUP: oral gavage, dose 10 mg/kg, 16 h post-dose
As shown below, each of these compounds has a reported Urine Na % of control value.
Entry rule: numbers only, all in %.

Illustrative cases are given below, each with its answer.
# COMPOUND, DISPLAY_UNIT, Urine Na % of control
measured = [
    ("N[C@@H]1CCCN([C@H]2Cc3c(Cl)cc(Cl)cc3[C@@H]2Oc2ccc(S(=O)(=O)NCCOCCOCCNC(=O)NCCCCNC(=O)NCCOCCOCCNS(=O)(=O)c3ccc(O[C@H]4c5cc(Cl)cc(Cl)c5C[C@@H]4N4CCC[C@@H](N)C4)cc3)cc2)C1", "%", 58),
    ("O=C(NCCCCNC(=O)NCCOCCOCCNS(=O)(=O)c1ccc(O[C@H]2c3ccccc3C[C@@H]2N2CCCCC2)cc1)NCCOCCOCCNS(=O)(=O)c1ccc(O[C@H]2c3ccccc3C[C@@H]2N2CCCCC2)cc1 [compound 66]", "%", 35),
    ("N=C(N)Nc1nc(-c2cccc(N3CCN(CCOCCOCCOCCNC(=O)CCOCCOCCOCCOCCOCCOCCOCCC(=O)NCCOCCOCCOCCN4CCN(c5cccc(-c6nc(NC(=N)N)nc7ccc(Cl)cc67)c5)CC4)CC3)c2)c2cc(Cl)ccc2n1", "%", 128),
    ("CN1Cc2c(Cl)cc(Cl)cc2[C@H](c2cccc(S(=O)(=O)NCCOCCOCCNC(=O)COCC(=O)NCCOCCOCCNS(=O)(=O)c3ccc(O[C@H]4c5ccccc5C[C@@H]4N4CCCCC4)cc3)c2)C1", "%", 64),
]

Next compound, Urine Na % of control to be filled in.
[Q] Please give the measured Urine Na % of control for this compound: "N=C(N)Nc1nc(-c2ccc(S(=O)(=O)NCCOCCOCCN)cc2)c2cc(Cl)ccc2n1"
[A] 73

###

System: phosphorus and calcium levels in the urine of rats
ASSAY_DETAILS: Urinary excretion of phosphate and calcium in rats (16 h overnight urine)
Format: in vivo, rat
ASSAY_SETUP: rats, oral gavage, dose 10 mg/kg, 16 h post-dose
Reported Urine P % of control is given for each of the following compounds.
Give your result in % as a bare value.

# COMPOUND, Urine P % of control (%)
data = [
    ("CN1Cc2c(Cl)cc(Cl)cc2[C@H](c2cccc(S(=O)(=O)NCCOCCOCCOCCNC(=O)CCN(CCC(=O)NCCOCCOCCOCCNS(=O)(=O)c3cccc([C@@H]4CN(C)Cc5c(Cl)cc(Cl)cc54)c3)CCC(=O)NCCOCCOCCOCCNS(=O)(=O)c3cccc([C@@H]4CN(C)Cc5c(Cl)cc(Cl)cc54)c3)c2)C1 [compound 79]", 33),
]

API: the following record is the query input.
[Q] # Urine P % of control lookup, item O=C(NCCCCNC(=O)NCCOCCOCCOCCNS(=O)(=O)c1ccc(O[C@H]2c3ccccc3C[C@@H]2N2CCCCC2)cc1)NCCOCCOCCOCCNS(=O)(=O)c1ccc(O[C@H]2c3ccccc3C[C@@H]2N2CCCCC2)cc1 (racemic) [compound 51]
[A] 52

###

Tested on: absorption of sodium from the intestinal lumen
ASSAY_DETAILS: Inhibition of intestinal sodium absorption: urinary sodium (uNa) 16 h after single oral dose in rats
Format: in vivo, rat
ASSAY_SETUP: oral gavage, dose 3 mg/kg, 16 h post-dose
Experimental: Inhibition of intestinal sodium and phosphate absorption. Urinary sodium concentration and fecal form were measured to assess the ability of selected example compounds to inhibit the absorption of sodium from the intestinal lumen. […] After dose administration animals were placed in individual metabolic cages where they were also fed the same chow in meal form and watered ad libitum. At 16 h post-dose, the urine samples were collected and fecal form was assessed by two independent observations. […]
ENDPOINT_NAME: Urine Na % of control (%)
Respond with the bare value in %.

[Q] Enter reported Urine Na % of control observed with absorption of sodium from the intestinal lumen for "CN1Cc2c(Cl)cc(Cl)cc2[C@H](c2cccc(S(=O)(=O)NCCOCCOCCNC(=O)CCC(CCC(=O)NCCOCCOCCNS(=O)(=O)c3cccc([C@@H]4CN(C)Cc5c(Cl)cc(Cl)cc54)c3)(CCC(=O)NCCOCCOCCNS(=O)(=O)c3cccc([C@@H]4CN(C)Cc5c(Cl)cc(Cl)cc54)c3)NC(N)=O)c2)C1"
[A] 23

[Q] Lab note: need Urine Na % of control with absorption of sodium from the intestinal lumen for entry "CN1Cc2c(Cl)cc(Cl)cc2[C@H](c2cccc(S(=O)(=O)NCCOCCOCCNC(=O)NCCN(CCNC(=O)NCCOCCOCCNS(=O)(=O)c3cccc([C@@H]4CN(C)Cc5c(Cl)cc(Cl)cc54)c3)CCNC(=O)NCCOCCOCCNS(=O)(=O)c3cccc([C@@H]4CN(C)Cc5c(Cl)cc(Cl)cc54)c3)c2)C1" , please look it up.
[A] 40

[Q] Kindly state the measured Urine Na % of control obtained for "CNC(=O)NC(CCC(=O)NCCOCCOCCNS(=O)(=O)c1cccc([C@@H]2CN(C)Cc3c(Cl)cc(Cl)cc32)c1)(CCC(=O)NCCOCCOCCNS(=O)(=O)c1cccc([C@@H]2CN(C)Cc3c(Cl)cc(Cl)cc32)c1)CCC(=O)NCCOCCOCCNS(=O)(=O)c1cccc([C@@H]2CN(C)Cc3c(Cl)cc(Cl)cc32)c1" with absorption of sodium from the intestinal lumen.
[A] 18

Source of measurements: patent US20240366589A1
